Target under test: Falcipain 2 (Plasmodium falciparum)
Sequence (Q9N6S8 whole entry): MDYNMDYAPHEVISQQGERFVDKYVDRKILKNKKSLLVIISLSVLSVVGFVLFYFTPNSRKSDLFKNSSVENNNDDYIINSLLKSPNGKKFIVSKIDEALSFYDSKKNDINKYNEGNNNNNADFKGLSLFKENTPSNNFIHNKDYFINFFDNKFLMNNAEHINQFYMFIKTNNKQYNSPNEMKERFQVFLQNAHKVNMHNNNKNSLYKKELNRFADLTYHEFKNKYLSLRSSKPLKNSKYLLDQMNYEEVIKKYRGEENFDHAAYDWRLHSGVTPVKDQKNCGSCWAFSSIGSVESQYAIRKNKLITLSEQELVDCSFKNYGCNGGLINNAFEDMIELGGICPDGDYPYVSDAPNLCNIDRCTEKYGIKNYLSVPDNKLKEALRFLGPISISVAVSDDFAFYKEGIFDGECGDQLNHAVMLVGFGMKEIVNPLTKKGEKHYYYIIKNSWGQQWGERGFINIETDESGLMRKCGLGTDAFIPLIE
Assay text: Inhibitory concentration against recombinant Falcipain-2
Listed below: IC50 values for each entry.

Compound | IC50 (µM)
CC(=O)N[C@@H](CC(C)C)C(=O)N[C@@H](CC(C)C)C(=O)N[C@H](C=O)CCCNC(=N)N [LEUPEPTIN] | 0.0058
O=C(Nc1ccc(Cl)cc1)Nc1ccc(C(=O)/C=C/c2ccccc2)cc1 | 3.8
O=C(Nc1ccc(Cl)cc1)Nc1ccc(C(=O)/C=C/c2ccc(Cl)cc2)cc1 | 2.6
O=C(Nc1ccc(Cl)cc1)Nc1ccc(C(=O)/C=C/c2ccc(F)cc2F)cc1 | 2.6
O=C(Nc1ccc(Cl)cc1)Nc1ccc(C(=O)/C=C/c2ccc(Cl)cc2Cl)cc1 | 2.5
COc1cc(/C=C/C(=O)c2ccc(NC(=O)Nc3ccc(Cl)cc3)cc2)cc(OC)c1OC | 1.8
CC(C)C[C@H](NC(=O)[C@H]1O[C@@H]1C(=O)O)C(=O)NCCCCN=C(N)N [E-64] | 0.058
O=C(Nc1ccc(Cl)cc1)Nc1ccc(C(=O)/C=C/c2ccc3c(c2)OCO3)cc1 | 2.5

====

Item-by-item account of IC50
Tested on: Plasmodium falciparum
Assay text: Inhibitory concentration against Plasmodium falciparum in FACS
Type: functional, organism-based

Molecule | Result unit | IC50
CC(C)C[C@H](NC(=O)[C@H]1O[C@@H]1C(=O)O)C(=O)NCCCCN=C(N)N [E-64] | µM | 2.5
O=C(Nc1ccc(Cl)cc1)Nc1ccc(C(=O)/C=C/c2ccc(F)cc2F)cc1 | µM | 8
COc1cc(/C=C/C(=O)c2ccc(NC(=O)Nc3ccc(Cl)cc3)cc2)cc(OC)c1OC | µM | 3
O=C(Nc1ccc(Cl)cc1)Nc1ccc(C(=O)/C=C/c2ccccc2)cc1 | µM | 9
O=C(Nc1ccc(Cl)cc1)Nc1ccc(C(=O)/C=C/c2ccc(Cl)cc2)cc1 | µM | 10
O=C(Nc1ccc(Cl)cc1)Nc1ccc(C(=O)/C=C/c2ccc(Cl)cc2Cl)cc1 | µM | 5
COc1cc(/C=C/C(=O)c2cccc(NC(=O)Nc3ccccc3)c2)cc(OC)c1OC | µM | 1.76

Recorded values, source ChEMBL document CHEMBL1141931.
